tgt: 15-hydroxyprostaglandin dehydrogenase [NAD(+)] (Homo sapiens)
testName: ligand-induced stabilization of human HPGD – biophysical, DSF, SYPRO orange, purified protein (AID 388)
runConditions: at 10 µM, buffer 10 mM HEPES, pH 7.5, NaCl 150 mM, hits give high values
measurementLabel: Tm shift

{"columns": ["compound", "measurementLabel", "result"],
 "data": [
  ["COc1ccc2c(c1)c(CC(=O)O)c(C)n2C(=O)c1ccc(Cl)cc1", "Tm shift", "2.1 Celsius"],
  ["O=c1cc(-c2ccccc2)oc2cc(O)c(O)c(O)c12", "Tm shift", "2.9 Celsius"],
  ["O=C(O)c1cccnc1Nc1cccc(C(F)(F)F)c1", "Tm shift", "2.1 Celsius"],
  ["O=c1c(-c2ccc(O)cc2)coc2cc(O)cc(O)c12", "Tm shift", "2.12 Celsius"],
  ["O=C1CC(c2ccc(O)cc2)Oc2cc(O)cc(O)c21 (stereo not given)", "Tm shift", "3.1 Celsius"]
]}

Missing value: Tm shift, 15-hydroxyprostaglandin dehydrogenase [NAD(+)] (Homo sapiens), entry CCc1ccc(CCOc2ccc(CC3SC(=O)CC3=O)cc2)nc1 (stereo not given) . Fill in?
2.28 Celsius

Quick one: O=c1cc(-c2ccc(O)c(O)c2)oc2cc(O)cc(O)c12
2.19 Celsius

For Cc1c(O)cc(O)c2c1OC(c1ccc(O)c(O)c1)C(=O)C2=O (stereo not given) then?
2.5 Celsius

And CCc1nnc(NS(=O)(=O)c2ccc(NC(=O)c3ccc(Cl)cc3Cl)cc2)s1 ?
2.2 Celsius

Another compound to look at: COc1cc([C@@H]2Oc3cc([C@@H]4Oc5cc(O)cc(O)c5C(=O)[C@H]4C)ccc3O[C@H]2CO)ccc1O
2.4 Celsius

Follow-up item: CCc1nnc(NS(=O)(=O)c2ccc(NC(=O)/C=C/c3ccc(F)cc3)cc2)s1
2.9 Celsius

Another compound to check: CC1(C)[C@@H](OC(=O)CCC(=O)O)CC[C@]2(C)[C@H]3C(=O)C=C4[C@@H]5C[C@@](C)(C(=O)O)CC[C@]5(C)CC[C@@]4(C)[C@]3(C)CC[C@@H]12
2.35 Celsius
